Cited source: ChEMBL document CHEMBL3576835

system_name: Mitogen-activated protein kinase 14 (Homo sapiens)
Sequence (Q16539 whole entry): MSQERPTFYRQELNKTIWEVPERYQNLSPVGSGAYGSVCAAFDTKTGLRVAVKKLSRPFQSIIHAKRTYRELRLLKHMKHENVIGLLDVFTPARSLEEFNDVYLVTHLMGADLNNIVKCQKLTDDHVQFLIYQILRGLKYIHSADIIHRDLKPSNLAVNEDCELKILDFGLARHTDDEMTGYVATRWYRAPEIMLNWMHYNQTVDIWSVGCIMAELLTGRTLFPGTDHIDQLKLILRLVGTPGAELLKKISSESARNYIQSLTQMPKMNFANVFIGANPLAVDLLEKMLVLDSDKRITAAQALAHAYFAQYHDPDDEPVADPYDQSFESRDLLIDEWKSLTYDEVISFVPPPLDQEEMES
protocol: Inhibition of p38alpha MAP kinase (unknown origin) using GFP-ATF2 as substrate after 1 hr by TR-FRET assay
observation_type: IC50 (nM)

COc1cccc(N2C(=O)/C(=C/c3ccc(OCC(=O)Nc4ccccc4Cl)cc3)N=C2c2ccccc2)c1 = 5.6

[P] COc1ccc(N2C(=O)/C(=C/c3ccc(OCC(=O)Nc4ccc(C)cc4)cc3)N=C2c2ccccc2)cc1
[Q] COc1cccc(NC(=O)COc2ccc(/C=C3\N=C(c4ccccc4)N(c4cccc(OC)c4)C3=O)cc2)c1
[R] COc1ccc(N2C(=O)/C(=C/c3ccc(OCC(=O)Nc4cccc(C)c4)cc3)N=C2c2ccccc2)cc1
[S] COc1cccc(N2C(=O)/C(=C/c3ccc(OCC(=O)Nc4ccc(C)cc4)cc3)N=C2c2ccccc2)c1
[T] COc1ccc(N2C(=O)/C(=C/c3ccc(OCC(=O)Nc4cccc(OC)c4)cc3)N=C2c2ccccc2)cc1
Your job: order these 5 records by IC50, ascending. Lab note: final answer is the ordered label list. S, Q, T, R, P

---

system_name: Mitogen-activated protein kinase 3 (Homo sapiens, UniProt P27361)
Sequence (P27361 whole entry): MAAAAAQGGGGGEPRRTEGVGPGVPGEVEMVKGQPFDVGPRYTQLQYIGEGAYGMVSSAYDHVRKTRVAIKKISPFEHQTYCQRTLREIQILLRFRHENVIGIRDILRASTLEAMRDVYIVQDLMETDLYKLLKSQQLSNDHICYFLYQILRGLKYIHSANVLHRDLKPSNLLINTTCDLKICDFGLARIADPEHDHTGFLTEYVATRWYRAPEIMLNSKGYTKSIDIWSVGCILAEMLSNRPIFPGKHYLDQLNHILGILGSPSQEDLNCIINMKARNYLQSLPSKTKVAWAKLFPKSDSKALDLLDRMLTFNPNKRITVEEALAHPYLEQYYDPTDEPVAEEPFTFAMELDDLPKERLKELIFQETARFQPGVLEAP
protocol: Inhibition of ERK1 (unknown origin) using GFP-ATF2 as substrate after 1 hr by TR-FRET assay
pIC50: −log10 of the molar value.
observation_type: pIC50

COc1ccc(N2C(=O)/C(=C/c3ccc(OCC(=O)Nc4cccc(OC)c4)cc3)N=C2c2ccccc2)cc1 = 7.68

[P] COc1cccc(NC(=O)COc2ccc(/C=C3\N=C(c4ccccc4)N(c4cccc(OC)c4)C3=O)cc2)c1
[Q] COc1ccc(N2C(=O)/C(=C/c3ccc(OCC(=O)Nc4ccc(C)cc4)cc3)N=C2c2ccccc2)cc1
Sorting ascending by pIC50, which comes first: P or Q ? Give the chosen item's label as your response. P
(P: 7.24, Q: 7.64)

[1] COc1ccc(N2C(=O)/C(=C/c3ccc(OCC(=O)Nc4ccccc4Cl)cc3)N=C2c2ccccc2)cc1
[2] COc1ccc(N2C(=O)/C(=C/c3ccc(OCC(=O)Nc4cccc(C)c4)cc3)N=C2c2ccccc2)cc1
Sorting ascending by pIC50, which comes first: 1 or 2 ? Give the chosen item's label as your response. 2

---

system_name: Mitogen-activated protein kinase 3 (Homo sapiens)
protocol: Inhibition of ERK1 (unknown origin) using GFP-ATF2 as substrate after 1 hr by TR-FRET assay
observation_type: IC50 (µM)

Below, each entry is followed by its recorded IC50 result.
COc1ccc(N2C(=O)/C(=C/c3ccc(OCC(=O)Nc4ccccc4OC)cc3)N=C2c2ccccc2)cc1 = 0.043
COc1cccc(N2C(=O)/C(=C/c3ccc(OCC(=O)Nc4ccccc4OC)cc3)N=C2c2ccccc2)c1 = 0.046
COc1ccc(NC(=O)COc2ccc(/C=C3\N=C(c4ccccc4)N(c4cccc(OC)c4)C3=O)cc2)cc1 = 0.076

[I] COc1cccc(N2C(=O)/C(=C/c3ccc(OCC(=O)Nc4ccccc4C)cc3)N=C2c2ccccc2)c1
[II] COc1ccc(NC(=O)COc2ccc(/C=C3\N=C(c4ccccc4)N(c4ccc(OC)cc4)C3=O)cc2)cc1
[III] COc1cccc(N2C(=O)/C(=C/c3ccc(OCC(=O)Nc4ccccc4Cl)cc3)N=C2c2ccccc2)c1
Your job: order these 3 records by IC50, ascending. Lab note: final answer is the ordered label list. II, I, III
(II: 0.023 µM, I: 0.043 µM, III: 0.087 µM)

[1] COc1cccc(N2C(=O)/C(=C/c3ccc(OCC(=O)Nc4cccc(C)c4)cc3)N=C2c2ccccc2)c1
[2] COc1cccc(N2C(=O)/C(=C/c3ccc(OCC(=O)Nc4ccccc4)cc3)N=C2c2ccccc2)c1
Choose between 1 and 2 : whose measured IC50 value is numerically larger? Give the chosen item's label as your response. 2
(2: 0.065 µM, 1: 0.02 µM)
